- System: OVCAR-3 ovarian
- test.summary: NCI-60 one-dose screen, 48 h
- experimental.conditions: 10 µM
This is part of a sample that, as a whole, favours compounds with a hit. Of some 83,000 tested, about 20% had one in any assay. The source made the active and inactive calls. The calls were made as follows: active = growth percent below 10; inactive = the rest.
Possible outcomes: active, inactive

molecule=S=C=NCCc1ccccc1 class=inactive
molecule="CC[C@@]1(O)C[C@H](OC2CC(N(C)C)C(O)C(C)O2)c2c(cc3c(c2O)C(=O)c2c(O)ccc(O)c2C3=O)[C@H]1C(=O)OC (stereo partly drawn)" class=active
molecule="CCOP(=O)(OCC)C(O)c1ccccc1Cl (stereo not drawn)" class=inactive
molecule=COc1ccc(/C=C(\C)[N+](=O)[O-])cc1OC class=active
molecule="COC12c3c(C)cc(O)c4c(=O)occ(c34)C(=O)C1C13COC(=O)c4c(O)cc(C)c(c41)C(=O)C2C3OC(C)=O (stereo not drawn)" class=inactive
molecule=C[CH2][Hg][S]c1ccccc1C(=O)O class=active
molecule=O=C(CBr)Nc1ccc(Cl)cc1 class=inactive
molecule="CC(Cc1ccc2c(c1)OCO2)NN (stereo not drawn)" class=inactive
molecule=C[C@@H]1C[C@@H]([C@H](O)CC2CC(=O)NC(=O)C2)C(=O)[C@@H](C)C1 class=active
molecule=N#CCc1ccccc1 class=inactive
molecule=COc1cc(/C=C/[N+](=O)[O-])cc(OC)c1OC class=active
molecule=Cc1cc(C)c(C[N+](C)(C)C)c(C)c1C class=inactive
molecule="COC(C(=O)C(O)C(C)O)C1Cc2cc3cc(OC4CC(OC(C)=O)C(OC5CC(O)C(OC)C(C)O5)C(C)O4)cc(O)c3c(O)c2C(=O)C1OC1CC(OC2CC(OC3CC(C)(O)C(OC(=O)C(C)C)C(C)O3)C(O)C(C)O2)C(O)C(C)O1 (stereo not drawn)" class=active
molecule=O=[N+]([O-])c1ccc(N(CCO)CCO)c2c1no[n+]2[O-] class=active
molecule="C#CC1(O)CCC(C(C)(C)C)CC1 (stereo not drawn)" class=inactive
molecule=O=[N+]([O-])c1cc[n+]([O-])c2ccccc12 class=active
molecule=ClCc1ccc2ccccc2n1 class=inactive
molecule="COC12C(COC(N)=O)C3=C(C(=O)C(C)=C(N)C3=O)N1CC1C2N1C (stereo not drawn)" class=inactive

----------
- System: HT29 colon
- test.summary: NCI-60 one-dose screen, 48 h
- experimental.conditions: 10 µM
About 83,000 compounds went through this panel and 20% of them were active in at least one assay; those are over-represented in the sample as a whole. Activity calls are given as the source filed them. The calls were made as follows: active = growth percent below 10; inactive = the rest.
Possible outcomes: active, inactive

compound=C=C1C(=O)O[C@@H]2C[C@@H](C)[C@@H]3C=CC(=O)[C@@]3(C)[C@@H](O)[C@H]12 class=active
compound=COc1cc(/C=C/[N+](=O)[O-])cc(OC)c1OC class=active
compound=NC(=O)c1cc([N+](=O)[O-])c(Cl)c([N+](=O)[O-])c1 class=active
compound="C#CC1(O)CCC(C(C)(C)C)CC1 (centres undefined)" class=inactive

----------
Recorded growth, one value per entry.
- Test system: SF-539 CNS
- test.summary: NCI-60 one-dose screen, 48 h (100 = growth as untreated, 0 = no growth, -100 = all killed)
- experimental.conditions: 10 µM
About 83,000 compounds went through this panel and 20% of them were active in at least one assay; those are over-represented in the sample as a whole.
measure: growth (%)

compound=O=[N+]([O-])c1ccc(N2CCOCC2)c2c1no[n+]2[O-] assay_target="SF-539 CNS" measured=-22.3
compound="CC(Cc1ccc2c(c1)OCO2)NN (stereo not drawn)" assay_target="SF-539 CNS" measured=91.9
compound=C=C1C(=O)O[C@@H]2C[C@@H](C)[C@@H]3C=CC(=O)[C@@]3(C)[C@@H](O)[C@H]12 assay_target="SF-539 CNS" measured=-73.3
compound=[O-][n+]1ccccc1S assay_target="SF-539 CNS" measured=67.6
compound=O=C(CBr)Nc1ccc(Cl)cc1 assay_target="SF-539 CNS" measured=105
compound=C/C1=C\[C@H](C)C[C@H](C)OC(=O)C[C@H](c2ccc(O)cc2)NC(=O)[C@@H](Cc2c(Br)[nH]c3ccccc23)N(C)C(=O)[C@H](C)NC(=O)[C@@H](C)C1 assay_target="SF-539 CNS" measured=-36.8
compound=CN(C)CC1(N)C(=O)NC(=O)NC1=O assay_target="SF-539 CNS" measured=99
compound="COc1ccccc1[As]=[As]c1ccccc1OC (stereo not drawn)" assay_target="SF-539 CNS" measured=-91.4
compound=O=C(CCl)Nc1ccc(Cl)cc1 assay_target="SF-539 CNS" measured=105
compound="CCOP(=O)(OCC)C(O)c1ccccc1Cl (stereo not drawn)" assay_target="SF-539 CNS" measured=91.1
compound=CCCCCCCC[N+]12CN3CN(CN(C3)C1)C2 assay_target="SF-539 CNS" measured=92.7
compound="O=C(O)c1cc(Cc2ccc(O)c(C(=O)O)c2)ccc1O (tested in a mixture with another compound)" assay_target="SF-539 CNS" measured=79.2
compound=COc1cc([C@@H]2c3cc4c(c(O)c3C[C@H]3COC(=O)[C@@H]32)OCO4)cc(OC)c1OC assay_target="SF-539 CNS" measured=-18
